The measurements presented in this section are drawn from ChEMBL document CHEMBL5244266.

- Test system: L5178Y
- MEASUREMENT PROTOCOL: Cytotoxicity against multi-drug resistant mouse L5178Y cells transfected with ABCB1 gene assessed as inhibition of cell growth incubated for 24 hrs by MTT assay
- Assay type: functional, cell-based
REPORTED ENDPOINT: IC50

input: Looking for the measured IC50 of `COc1ccc([C@@H]2CC(=O)c3c(O)cc(OC)cc3O2)cc1` , can you help?
output: ≥ 11.3 µM

input: Could you tell me which IC50 is on file for `Oc1ccc([C@@H]2C/C(=N\Nc3cnccn3)c3c(O)cc(O)cc3O2)cc1` ?
output: ≥ 11.3 µM

input: Entry COc1cc(O)c2c(c1)O[C@H](c1ccc(OCC(O)Cc3c[nH]c4ccccc34)cc1)CC2=O (some centres undefined) : reported IC50 = ?
output: ≥ 11.3 µM
